// merged dataset of pIC50 values, system = Histone deacetylase 2 (Homo sapiens, UniProt Q92769), multiple refs
pIC50: −log10 of the molar value.

// solved cases for pIC50 follow
> print(dat)
                           substance.smiles  readout  assay.result
1  Nc1ccccc1NC(=O)c1ccc(N2CC[C@H](NC(=O)OCc3cccnc3)C2)cc1    pIC50        ≥ 5.30
2  COc1ccc(Cn2cc(CN(C)CCc3ccccn3)c3ccc(C(=O)NO)cc32)cc1    pIC50        < 5.00
3  CSC1=Nc2ccccc2S(=O)(=O)N1Cc1ccc(C(=O)Nc2ccccc2N)cc1    pIC50  6.30 to 7.00

Q) Please report the recorded pIC50 for `Nc1ccccc1NC(=O)c1ccc(CN2C(=O)Nc3ccc(-c4cncnc4)cc3S2(=O)=O)cc1` .
A) > 7.30

---

// merged dataset of IC50 values, system = Histone deacetylase 2 (Homo sapiens), multiple refs

// solved cases for IC50 follow
> print(dat)
                           substance.smiles  assay.result
1  Cn1cnc2cc(C(=O)Nc3cc(-c4cccs4)ccc3N)ccc21   35 to 40 nM
2  COCCOc1ccc(C(=O)Nc2cc(-c3cccs3)ccc2N)nn1   20 to 30 nM
3  COc1ccc2c(c1)NC(=S)N(Cc1ccc(C(=O)Nc3cc(F)ccc3N)cc1)S2(=O)=O       < 50 nM

Next:
Q) Please report the recorded IC50 for `O=C(NO)c1ccc(NCc2ccccc2)cc1` .
A) 800 to 900 nM

---

// merged dataset of IC50 values, system = Histone deacetylase 2 (Homo sapiens), multiple refs

// solved cases for IC50 follow
> print(dat)
                           substance.smiles   assay.result
1  Nc1ccccc1NC(=O)c1ccc(CN2C(=O)Nc3ccccc3S2(=O)=O)nc1   50 to 100 nM
2           O=C(NO)c1ccc(NCc2cc(F)ccc2F)cc1  450 to 600 nM
3  Nc1ccc(-c2ccccc2)cc1NC(=O)c1cnc(N2CCNCC2)o1       > 500 nM
4  C/C=C1\NC(=O)c2cccc(n2)CNC(=O)C[C@@H](/C=C/CCSC(C)=O)OC(=O)[C@H](CCCCN)NC1=O          47 nM

Q) Please report the recorded IC50 for `C/C=C1\NC(=O)c2ccc(F)c(n2)CNC(=O)C[C@@H](/C=C/CCSC(C)=O)OC(=O)[C@H](CCCCNC(=O)OCC2c3ccccc3-c3ccccc32)NC1=O` .
A) 29 nM

Q) `FC(F)c1nnc(-c2ccc(Cn3cnc(-c4ccc(NC5=NCCN5)cc4)c3)nc2)o1` , same question.
A) > 30000 nM

Q) `Nc1ccc(-c2ccco2)cc1NC(=O)c1cnc(N2CCNCC2)cn1` , same question.
A) 10 to 500 nM

Q) `C/C=C1\NC(=O)c2cc(F)cc(n2)CNC(=O)C[C@@H](/C=C/CCSC(C)=O)OC(=O)[C@H](C(C)C)NC1=O` , same question.
A) 46 nM

Q) `Nc1ccccc1NC(=O)c1ccc(CSc2nc3ccccc3n2C2CCCCC2)cc1` , same question.
A) 100 to 1000 nM

Q) `C/C=C1\NC(=O)c2nc(ccc2SC)CNC(=O)C[C@@H](/C=C/CCSC(=O)CCCCC)OC(=O)[C@H](C(C)C)NC1=O` , same question.
A) 31 nM

---

// merged dataset of IC50 values, system = Histone deacetylase 2 (Homo sapiens, UniProt Q92769), multiple refs

> print(dat)
                           substance.smiles                                 tested.on      assay.result
1  CN(C)CCNc1ccc2cc(C(=O)Nc3cc(-c4cccs4)ccc3N)cnc2c1  Histone deacetylase 2 (Homo sapiens, UniProt Q92769)       15 to 20 nM
2  O=C(NO)c1ccc2ccn(Cc3cccc(NS(=O)(=O)c4ccccc4)c3)c2c1  Histone deacetylase 2 (Homo sapiens, UniProt Q92769)  1000 to 10000 nM

Q) Please report the recorded IC50 for `COC(=O)N(Cc1cccnc1)[C@H]1CCN(c2ccc(C(=O)Nc3ccccc3N)cc2)C1` .
A) ≤ 500 nM

Q) `O=C(NO)c1ccc(NCc2cc(Cl)ccc2Cl)cc1` , same question.
A) 100 to 200 nM

Q) `CC(C)(C)OC(=O)N[C@H]1CCN(c2ccc(C(=O)Nc3ccccc3N)cc2)C1` , same question.
A) ≤ 500 nM

Q) `Cn1c(Sc2c(F)cc(C(=O)NO)cc2F)nnc1-c1cccc2ccccc12` , same question.
A) > 30000 nM

---

// merged dataset of IC50 values, system = Histone deacetylase 2 (Homo sapiens), multiple refs

// solved cases for IC50 follow
> print(dat)
                           substance.smiles  assay.result
1  Nc1ccc(-c2ccc(F)cc2)cc1NC(=O)c1ccc(N2CCNCC2)nc1  10 to 500 nM
2  O=C(NO)c1cnc(NC2(c3ccccc3)CCN(S(=O)(=O)c3ccc(C(F)(F)F)cc3)CC2)nc1        782 nM
3     O=C(Cn1ccc2ccc(C(=O)NO)cc21)Nc1ccccc1    > 10000 nM

Q) Please report the recorded IC50 for `Nc1ccccc1NC(=O)c1ccc(CN2C(=O)Nc3ccc(-c4cccnc4)cc3S2(=O)=O)cc1` .
A) < 50 nM

Q) `FC(F)c1nnc(-c2ccc(Cn3cc(-c4ccc5nc(Cl)[nH]c5c4)nn3)nc2)o1` , same question.
A) > 30000 nM

---

pIC50: −log10 of the molar value.
// merged dataset of pIC50 values, system = Histone deacetylase 2 (Homo sapiens, UniProt Q92769), multiple refs

// solved cases for pIC50 follow
> print(dat)
                           substance.smiles                                 tested.on  readout  assay.result
1  Nc1ccc(-c2cccs2)cc1NC(=O)c1ccc2c(c1)CC(=O)N2  Histone deacetylase 2 (Homo sapiens, UniProt Q92769)    pIC50  7.52 to 7.60
2  CNCCCOc1ccc2cc(C(=O)Nc3cc(-c4cccs4)ccc3N)cnc2c1  Histone deacetylase 2 (Homo sapiens, UniProt Q92769)    pIC50  7.60 to 7.70
3  Nc1ccc(-c2ccccn2)cc1NC(=O)c1ccc(N2CCNCC2)cn1  Histone deacetylase 2 (Homo sapiens, UniProt Q92769)    pIC50  6.30 to 8.00

Next:
Q) Please report the recorded pIC50 for `CCOC(=O)N[C@H]1CCN(c2ccc(C(=O)Nc3ccccc3N)cc2)C1` .
A) ≥ 6.30

---

// merged dataset of IC50 values, system = Histone deacetylase 2 (Homo sapiens), multiple refs

// solved cases for IC50 follow
> print(dat)
                           substance.smiles    assay.result
1  Nc1ccc(-c2ccncc2)cc1NC(=O)c1ccc(N2CCNCC2)s1    10 to 500 nM
2  CN1CC[C@@H](OC(=O)N[C@H]2CCN(c3ccc(C(=O)Nc4ccccc4N)cc3)C2)C1        ≤ 500 nM
3  N#Cc1cccc(-c2ccc(C(=O)Nc3nc(-c4ccc(F)cc4)ccc3N)cn2)c1  200 to 1000 nM

Next:
Q) Please report the recorded IC50 for `Nc1ccc(-c2cccs2)cc1NC(=O)c1cnc(N2CCNCC2)o1` .
A) > 500 nM
